Sourced from PubChem BioAssay (NCI)

# procedure text: NCI Yeast Anticancer Drug Screen. Data for the sgs1 mgt1 strain (AID 161);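 also: 0% = growth of cultures given vehicle only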
# experimental parameters: S. cerevisiae sgs1 mgt1 strain, at 50.0 µM
About 79,000 compounds went through this panel and 15% of them were active in at least one assay; those are over-represented in the sample as a whole. The source made the active and inactive calls. Rule as the data show it: active = growth inhibition above about 70%; inactive = the rest.
Possible outcomes: Y (active), N (inactive)

* c1c2c(cc(-n3nnc4c3CCCCCC4)c1-n1nnc3c1CCCCCC3)CCCCCC2 | Y
* C/C(=N\NC(=S)NCCCNC(=S)N/N=C(\C)c1ccccn1)c1ccccn1 | Y
* c1c[n+](CCC2CCCCC2)ccn1 | Y
* CC1=C(C(=O)Nc2ccc([N+](=O)[O-])cc2)C(c2ccccc2F)C(C(=O)Nc2ccc([N+](=O)[O-])cc2)=C(C)N1 | N
* O=C(O)Cc1cc(I)c(Oc2ccc(O)c(I)c2)c(I)c1 | Y
* CC(=O)OCC1CC2OC2CC1C (stereo not drawn) | Y
* Cc1ccc(S(=O)(=O)NC(CCC(=O)Nc2ccccc2)C(=O)O)cc1 (stereo not drawn) | N
* C(/Cc1ccc2c(c1)OCO2)=N\NC1=NCCCCN1 | N
* CCOC(=O)/C(C#N)=C/c1coc2cc(C)cc(C)c2c1=O | Y
* O=C(/C=C/C(=O)N1CCCC1)N1CCCC1 | N
* N=C(N)c1ccc(/C=C/c2ccc(C(=N)N)cc2)cc1 | Y
* COC(=O)C(C#N)C(c1ccccc1)c1c[nH]c2ccccc12 (stereo not drawn) | N
* CC(C)(C)[Si](C)(C)O/N=C\c1cccc(O[Si](C)(C)C(C)(C)C)c1 | Y
* CC(C)C(=O)/C=C/c1c(Cl)cccc1Cl | N
* C=C1C(=O)OC2CC3(C)CC(O)C(O)C(=C)C3CC12 (stereo not drawn) | Y
* O=C(c1ccccc1)C(c1ccccc1)C1(O)C(=O)Nc2c(Cl)cc(Cl)cc21 (stereo not drawn) | Y
* C(=N\NC1=NCCN1)/c1cccc2cc3ccncc3nc12 | Y
* COc1ccc(/C=N/Nc2cc(C)nc3cc4c(cc23)OCO4)c2ccccc12 | Y

---

# procedure text: NCI Yeast Anticancer Drug Screen. Data for the mec2-1 strain (AID 157)
# experimental parameters: S. cerevisiae mec2-1 strain, at 50.0 µM (retest, dose inferred, filed as 5.0)
# Procedure: Growth inhibition of yeast strains with defined genetic alterations is measured as a screen for potential anti-cancer activity. Selected strains with alterations in DNA damage repair or cell cycle control were exposed to compounds and growth inhibition was measured relative to vehicle treated controls. The strain used in this assay is mec2-1
This is part of a sample that, as a whole, favours compounds with a hit. Of some 79,000 tested, about 15% had one in any assay. Active and inactive are the calls of the source. Rule as the data show it: active = growth inhibition above about 70%; inactive = the rest.
Possible outcomes: 1 (yes) for active, 0 (no) for inactive

• COc1ccc2[nH]c3ccc4cc[n+](CCN5CCC(C6CCN(CC[n+]7ccc8ccc9[nH]c%10ccc(OC)cc%10c9c8c7)CC6)CC5)cc4c3c2c1 = 1 (yes)
• CC(C)C1=CC(=O)C(C)(C2C(O)CC3(C)C4CC=C5C(CCC(O)C5(C)C)C4(C)C(=O)CC23C)O1 (stereo not given) = 1 (yes)
• Nc1cc2c(c[n+](CCCBr)c3ccccc23)c2ccccc12 = 1 (yes)
• O=C(O)c1ccc2c(Br)ccc3c2c1CC3 = 0 (no)
• CC1(C)CC(=O)C(C(c2ccc3c(c2)OCO3)N2CCOCC2)C(=O)C1 (stereo not given) = 0 (no)
• O=C(OC1=C(Br)C(=O)c2ccccc2C1=O)c1ccccc1 = 1 (yes)
• CC1OC(OP(=O)(OCc2ccccc2)OCc2ccccc2)C(OC(=O)c2ccccc2)C(OC(=O)c2ccccc2)C1I (stereo not given) = 1 (yes)
• CCN(CC)C1Oc2cc3c(cc2C(c2ccc(OC)cc2)C1C)OCO3 (stereo not given) = 1 (yes)
• O=C1C=CC(=O)N1c1ccc(Cl)cc1 = 1 (yes)
• CC(C)CCCC(O)CNCc1ccccc1 (stereo not given) = 0 (no)
• CC[n+]1ccc(Nc2ccc(NC(=O)c3ccc(C(=O)Nc4ccc(Nc5cc[n+](CC)c(N)n5)cc4)cc3)cc2)nc1N = 1 (yes)
• NNC(=O)N/N=C(/CC1(O)C(=O)Nc2ccc(Br)cc21)c1ccccc1 (stereo not given) = 0 (no)
• Cc1[nH]c2ccccc2c1C(C)CC(O)c1ccccc1 (stereo not given) = 1 (yes)
• O=S(=O)(OCC#CCOS(=O)(=O)c1ccc(Cl)c(Cl)c1)c1ccc(Cl)c(Cl)c1 = 0 (no)
• Nc1ncnc(N2CCOCC2)c1N = 0 (no)

---

Reported growth inhibition by item:
# procedure text: NCI Yeast Anticancer Drug Screen. Data for the rad50 strain (AID 155);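 also: 0% = growth of vehicle-only cultures of the same strain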
# experimental parameters: S. cerevisiae rad50 strain growth inhibition; at 5.0 µM (retest, dose inferred, filed as 0.5); stronger effect = higher value
The panel holds about 79,000 compounds, 15% with a hit somewhere; the sample as a whole holds those more often.
result type: growth inhibition (%)

• O=C1OC(c2ccccc2)N/C1=C\c1ccc2c(c1)OCO2 (configuration not stated) = 34
• COc1cc(C(=O)[O][Sn]([c]2ccccc2)([c]2ccccc2)[c]2ccccc2)cc(OC)c1OC = 100
• CC1=CC(C2/C(=N/O)C=C(C)CC2(C)C)C(O)C(C)(C)C1 (configuration not stated) = 7
• CC(C)CCCC(O)CNCc1ccccc1 (configuration not stated) = 9
• N/C(=N\OC1(c2ccccc2)OC(=O)C(=O)/C1=C(/O)c1ccccc1)c1ccccc1 (configuration not stated) = 10
• O.O.O=Cc1cc(Br)cc(Br)c1O.O=Cc1cc(Br)cc(Br)c1O.[Co] = 58
• C=CCOCCC=O = 7
• Cn1ncc2c(Nc3ccccc3)nc(Nc3ccccc3)nc21 = -1
• Clc1ccc(/C=N\Nc2c3ccccc3nc3ccccc23)cc1Cl = -5
• O=C(CCl)N(Cc1ccccc1)Cc1ccccc1 = -2
• O=C1c2ccccc2Cc2cc(O)ccc21 = 29
• Nc1ccc(C(=O)N/C(=C\c2ccc3c(c2)OCO3)c2nc3ccccc3s2)cc1 = 23
• O=S(=O)(/C=C/c1cccnc1)/C=C/c1cccnc1 = 0
• COC12C=CC(CC1)C1=C2C(=O)c2nc(C)c(C)nc2C1=O (configuration not stated) = -1
• CCCCCCCCCCCCSC(=NCC)NCC = 89
• Cc1cc(O)c2c(c1)OC1(C)CCC3C(C)(C)CCCC34COC2C14 (configuration not stated) = 18
• Cn1c2ccccc2c2cc3cnccc3cc21 = -98
• N/C(=N\N=C/c1ccc(O)c(O)c1O)NO = -2
• CC(=O)OCC1OC(OC2CCCc3c(O)c4c(c(O)c32)C(=O)c2ccccc2C4=O)C(OC(C)=O)C(OC(C)=O)C1OC(C)=O (configuration not stated) = 32
• C[C@]12CC[C@@H]3c4ccc(O)cc4CC[C@H]3[C@@H]1CC[C@@H]2NCCCCCCO = 21
• COc1cc(-c2ccc(-[n+]3nc(Cc4ccc5c(c4)OCO5)nn3-c3ccccc3)c(OC)c2)ccc1-[n+]1nc(Cc2ccc3c(c2)OCO3)nn1-c1ccccc1 = 4
• Cc1ccc(NC(=S)SCc2ccc(Cl)cc2)cc1Cl = 33

---

Reported growth inhibition by item:
# procedure text: NCI Yeast Anticancer Drug Screen. Data for the rad50 strain (AID 155);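 also: 0% = growth of vehicle-only cultures of the same strain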
# experimental parameters: S. cerevisiae rad50 strain growth inhibition; at 50.0 µM (retest, dose inferred, filed as 5.0); stronger effect = higher value
Compounds without any hit were thinned out: in the full panel of roughly 79,000, 15% have a hit.
result type: growth inhibition (%)

• Cc1cc(C(O)(c2cc(C)c(O)c(C(=O)O)c2)c2cc(C)c(O)c(C(=O)O)c2)cc(C(=O)O)c1O = -5
• COC1=CC(=O)c2c(O)c3c(c(O)c2C1=O)C=C(C)OC3O (centres undefined) = 34
• Clc1ccccc1CN1COc2c(cc(Cl)c3cccnc23)C1 = 99
• Clc1ccc2nc(Cl)c(Cl)nc2c1 = 42
• COC12C=CC(CC1)C1=C2C(=O)c2nc(C)c(C)nc2C1=O (centres undefined) = 27
• O=C(O)Cc1c[nH]c2ccccc12 = -3
• CCCCCCCCCCCCCCCC(=O)N(CCCN(CC)CC)C(C)CCCN(CC)CC (centres undefined) = 98
• CCC(COS(=O)(=O)c1ccc(C)cc1)(COS(=O)(=O)c1ccc(C)cc1)COS(=O)(=O)c1ccc(C)cc1 = 0
• Oc1ccccc1/C=N\N=C\c1ccccc1O = -22
• CC(=O)Oc1c(C)cc(C)cc1Cc1cc(C(C)=O)cc(Cc2cc(C)cc(C)c2OC(C)=O)c1OC(C)=O = 91
• c1ccc2c(c1)Cc1nc3ccccc3nc1-2 = 93
• O=C1C(Br)=C(Br)C(=O)c2ccccc21 = 95
• Cc1ccc(S(=O)(=O)NC(CCC(=O)Nc2ccccc2)C(=O)O)cc1 (centres undefined) = 0
• CC(C)c1ccc2c(c1)CC[C@H]1[C@](C)(C(=O)O)CCC[C@]21C = 96
• O=C1C(=Cc2ccccc2O)N=C(c2ccccc2)N1n1c(-c2ccccc2)nc2ccccc2c1=O = 31
• O=[N+]([O-])/C=C/c1cc2ccccc2[nH]1 = 99
• Cc1ccc(/C=N/NC(N)=S)cc1C = 18
• CC1(C)c2ccccc2-c2nc3ccccc3cc2C1Br (centres undefined) = 29
• O=C1C(Cl)=C(Nc2ccc(S(=O)(=O)Nc3ccccn3)cc2)C(=O)c2ccccc21 = 99
• O=C1C=CC(=O)N1CCc1ccccc1 = 97
• CC(=O)Oc1c2c(c(C)c3ccccc13)C(=O)c1cccnc1C2=O = 4
• CC1OC(OP(=O)(OCc2ccccc2)OCc2ccccc2)C(OC(=O)c2ccccc2)C(OC(=O)c2ccccc2)C1I (centres undefined) = 93
• C=C(C)C1CC/C(C)=C/CCC2(C)OC2CC/C(CO)=C\C1O (centres undefined) = 89
• CCCCCCCCCC[N+](C)(C)CCC[N+](C)(C)CCCCCCCCCC = 93
• CSC(=S)NN=C1CCCC1 = 97
• CC1=C(C(=O)OCCO[N+](=O)[O-])C(c2ccccc2[N+](=O)[O-])C(C(=O)OC(C)C)=C(C)N1 (centres undefined) = 97
• N=c1n(CC(=O)NC23CC4CC(CC(C4)C2)C3)c2ccccc2n1Cc1ccc(Cl)cc1 = 33
• Cc1cc2nc3ccc(N)cc3oc-2cc1=[N+](C)C = 95
• Cc1[nH]c2ccccc2c1C(C)CC(O)c1ccccc1 (centres undefined) = 68
• CCN(CC)C1Oc2cc3c(cc2C(c2ccc(OC)cc2)C1C)OCO3 (centres undefined) = 96
• CC1=C(C(=O)Nc2ccccc2)C(c2ccc(Cl)c(Cl)c2)C(C(=O)Nc2ccccc2)=C(C)N1 = 26
• COc1ccc(SC2=C(N(C)C(C)=O)C(=O)c3ccccc3C2=O)cc1 = 99
• COC(=O)C1(C)CCCC2(C)C3CCC4CC3(C=C4CO)CCC12 (centres undefined) = 96
• COC(=O)C12CCC(C)(C)CC1C1=CCC3C4(C)CC(O)C(O)C(C)(C(=O)OC)C4CCC3(C)C1(CO)CC2 (centres undefined) = 97
• O=[N+]([O-])c1ccc(C(Cl)Cc2ccc(Cl)cc2)cc1 (centres undefined) = 66
• CC(c1ccccc1)c1cc(C(C)(C)C)ccc1O (centres undefined) = 99
• O=[N+]([O-])c1ccc(Cl)cc1C(Nc1nncs1)Nc1nncs1 = 81
• Oc1ccc2c(c1)Cc1ccccc1-2 = 70
• O=S(=O)(CCCCl)SCCCCl = 99
• O=C(O)CCC(=O)NCCNC(=O)CC(=O)O = -162
• O=C(NN=C1CCCCC1)c1ccc([N+](=O)[O-])cc1 = -7
• CC(C)c1ccc(CN(CCO)Cc2ccc(C(C)C)cc2)cc1 = 84
• O=S(=O)(Nc1ccccc1C(F)(F)F)c1ccc(F)cc1 = 49
• CCOC(=O)C(=Cc1ccc(C(=O)OC)cc1)C(=O)OCC = 58
